Ref: the supplement of paper PMC6555819

System: PPARg DBDmut IVT, anti-PPARg (DBD mutation: PPARg1 K132A/R137A, NR concentration 270 nM)
Test: PBM binding z-score (relative to random genomic background probes); higher = stronger binding; sequences stand for … in GC…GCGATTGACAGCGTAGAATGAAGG

SEQUENCE ENTRY	TGT	PBM binding z-score
CAAACTAGGGCACCGGAAGGTCAAAGTCCGCATG	PPARg DBDmut IVT, anti-PPARg (DBD mutation: PPARg1 K132A/R137A, NR concentration 270 nM)	0.324
CCTAGTTGGTCATGAGGTCACACACCGGATATGA	PPARg DBDmut IVT, anti-PPARg (DBD mutation: PPARg1 K132A/R137A, NR concentration 270 nM)	0.4
ACTAGCAGGCCAAGGGTCACTAAAGATTAGTCCG	PPARg DBDmut IVT, anti-PPARg (DBD mutation: PPARg1 K132A/R137A, NR concentration 270 nM)	-0.44
TCGAGTAGGTTAATCGGGGCATTCAGCCAACATA	PPARg DBDmut IVT, anti-PPARg (DBD mutation: PPARg1 K132A/R137A, NR concentration 270 nM)	-0.256
CGAACTAGGTCATTGACAGGACAGTTAATAGTAA	PPARg DBDmut IVT, anti-PPARg (DBD mutation: PPARg1 K132A/R137A, NR concentration 270 nM)	2.93
ATCGAAAGGGCGACGAGGTGAGTATACACCGTTT	PPARg DBDmut IVT, anti-PPARg (DBD mutation: PPARg1 K132A/R137A, NR concentration 270 nM)	0.302
ATCTCTAGGTAACAAGTTGAGTGAAAGAGAGGAC	PPARg DBDmut IVT, anti-PPARg (DBD mutation: PPARg1 K132A/R137A, NR concentration 270 nM)	1.04
CGAACTAGGTCATTGAAAGGACAGTGAATAGTAA	PPARg DBDmut IVT, anti-PPARg (DBD mutation: PPARg1 K132A/R137A, NR concentration 270 nM)	2.02
GCAGACAGGTGAAACGCAGGTAACGCAGGGTGGC	PPARg DBDmut IVT, anti-PPARg (DBD mutation: PPARg1 K132A/R137A, NR concentration 270 nM)	-0.805
TAGCCTAGGTCATACGGGCCAGTATAGTGTCGGC	PPARg DBDmut IVT, anti-PPARg (DBD mutation: PPARg1 K132A/R137A, NR concentration 270 nM)	-0.639
TCGAGTGGGTTACCAATGGGGCATTCAGCTTTCT	PPARg DBDmut IVT, anti-PPARg (DBD mutation: PPARg1 K132A/R137A, NR concentration 270 nM)	-0.482
ATCGAAAAGTCGAGGTGAGTATAGAGAAAGGGAA	PPARg DBDmut IVT, anti-PPARg (DBD mutation: PPARg1 K132A/R137A, NR concentration 270 nM)	-0.338
